Assayed System: D93, recombinant humanized IgG1 kappa antibody targeting denatured-collagen
Assay Remarks: competition ELISA on coated human dn-collagen IV
Square brackets hold non-standard residues; d marks the D form. Ends that are not written are not given here. Hyp = O=C(O)[C@@H]1C[C@@H](O)CN1
Measured Endpoint: % inhibition of D93 binding to dn-collagen IV, peptide 100 µM

Binder	Reading
GPXGPXGP (hydroxyproline at the P positions marked in Tables 13 and 14; marking lost in this text) [synthetic peptide No. 17, GPPGPPGP (SEQ ID NO: 31)]	77%
LPGP[Hyp]GP[Hyp]GP [synthetic peptide No. 5, … (SEQ ID NO: 20)]	89%
GPPG (also: hydroxyproline marking, if any, lost) [synthetic peptide No. 22, GPPG (SEQ ID NO: 35)]	3.5%
L[Hyp]GS[Hyp]G [synthetic peptide No. 10, LPGSPG (SEQ ID NO: 26)]	2.5%
PGP[Hyp]GP[Hyp]GP [synthetic peptide No. 1, … (SEQ ID NO: 29)]	87.5%
L[Hyp]GF[Hyp]G [synthetic peptide No. 19, LPGFPG (SEQ ID NO: 23)]	8%
[Hyp]GAKGLPGP [synthetic peptide No. 13, … (SEQ ID NO: 17)]	4%
